tested on: HT-29; experiment: cells; conditions: Homo sapiens, HT-29, 72 h
Description: Cytotoxicity against human HT-29 cells assessed as cell growth inhibition after 72 hrs by MTT assay
resultType: IC50 (nM)
One number for each entry, in nM.

These solved cases illustrate the format of a correct answer.
In [3]: df
Out[3]:
                          chemicalstructure    tgt  resulttype  reportedresult
0  COc1cc2c(Oc3ccc(NC(=O)c4c(Cl)c5ccccc5n(-c5ccc(F)cc5)c4=O)cc3F)ccnc2cc1OCCCN1CCC(C)CC1  HT-29        IC50             110
1  COc1cc2c(Oc3ccc(NC(=O)c4c(Cl)c5ccccc5n(-c5ccc(C)cc5)c4=O)cc3F)ccnc2cc1OCCCN1CCCCC1  HT-29        IC50             520
2  COc1cc2c(Oc3ccc(NC(=O)c4c(Cl)c5ccccc5n(-c5ccc(F)cc5)c4=O)cc3F)ccnc2cc1OCCCN1CCOCC1  HT-29        IC50             140
3  COc1cc2c(Oc3ccc(NC(=O)c4c(Cl)c5ccccc5n(-c5ccccc5)c4=O)cc3F)ccnc2cc1OCCCN1CCCCC1  HT-29        IC50           41600
4  COc1cc2c(Oc3ccc(NC(=O)c4c(Cl)c5ccccc5n(-c5ccccc5)c4=O)cc3F)ccnc2cc1OCCCN1CCN(C)CC1  HT-29        IC50              91

Provide IC50 values for the following items, in order.
1. COc1cc2c(Oc3ccc(NC(=O)c4c(Cl)c5ccccc5n(-c5ccccc5OC)c4=O)cc3F)ccnc2cc1OCCCN1CCCCC1
2. COc1cc2c(Oc3ccc(NC(=O)c4c(Cl)c5ccccc5n(-c5ccc(F)cc5)c4=O)cc3F)ccnc2cc1OCCCN1CCN(C)CC1
3. COc1cc2c(Oc3ccc(NC(=O)c4c(Cl)c5ccccc5n(-c5ccccc5)c4=O)cc3F)ccnc2cc1OCCCN1CCOCC1

1: 12600; 2: 68; 3: 460

---

Assign pIC50 to each entry below.
system: HT-29; assay: cells; settings: Homo sapiens, HT-29, 72 h
One number for each entry, as −log10 of the molar value.

Known results for compounds:
                          chemicalstructure    tgt  resulttype  reportedresult
0  COc1cc2c(Oc3ccc(NC(=O)c4c(Cl)c5ccccc5n(-c5ccccc5)c4=O)cc3F)ccnc2cc1OCCCN1CCC(C)CC1  HT-29       pIC50            6.46
1  COc1cc2c(Oc3ccc(NC(=O)c4c(Cl)c5ccccc5n(-c5ccc(C)cc5)c4=O)cc3F)ccnc2cc1OCCCN1CCN(C)CC1  HT-29       pIC50            6.82
2  COc1cc2c(Oc3ccc(NC(=O)c4c(Cl)c5ccccc5n(-c5ccccc5F)c4=O)cc3F)ccnc2cc1OCCCN1CCN(C)CC1  HT-29       pIC50            6.77

Please give pIC50, item by item, for the list that follows.
1. COc1cc2c(Oc3ccc(NC(=O)c4c(Cl)c5ccccc5n(-c5ccccc5OC)c4=O)cc3F)ccnc2cc1OCCCN1CCN(C)CC1
2. COc1cc2c(Oc3ccc(NC(=O)c4c(Cl)c5ccccc5n(-c5ccccc5)c4=O)cc3F)ccnc2cc1OCCCN1CCCC1
3. COc1cc2c(Oc3ccc(NC(=O)c4c(Cl)c5ccccc5n(-c5ccc(C)cc5)c4=O)cc3F)ccnc2cc1OCCCN1CCC(C)CC1
4. COc1cc2c(Oc3ccc(NC(=O)c4c(Cl)c5ccccc5n(-c5ccc(F)cc5)c4=O)cc3F)ccnc2cc1OCCCN1CCCCC1

1. 6.28
2. 6.41
3. 6.72
4. 6.54
